# tested_target: T1, TerR35-138 (Aspergillus terreus SBUG844, UniProt Q0D1P5 35-138)
# T1 sequence: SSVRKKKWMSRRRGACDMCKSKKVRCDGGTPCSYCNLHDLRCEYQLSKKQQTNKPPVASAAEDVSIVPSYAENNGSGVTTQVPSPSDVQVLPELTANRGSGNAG
# procedure_details: SPR; molar ratio 1.17; SPR (Biacore 2000, SA-coated CM3 chip): 10 mM HEPES pH 7.4, 150 mM NaCl, 0.005% P20, 5 mM beta-mercaptoethanol, 1 uM ZnCl2, 25 C; protein 12.5-6400 nM; 1:1 model with mass transport
# test_settings: protein: recombinant; (pET-29a; theoretical mass 11.35 kDa); label: biotin on one strand; 18 bp duplex
pKd: −log10 of the molar value.
measure_name: pKd

> print(dat)
                                     binder  measurement
1  BS8 (dsDNA) DNA 1: CGGGCGGTTAGGCGGCAT DNA 2: ATGCCGCCTAACCGCCCG         6.54
